Values were extracted from ChEMBL document CHEMBL1144049.

# reported pIC50; entries follow
tested target: ATP-dependent translocase ABCB1 (Homo sapiens)
Sequence (P08183 whole entry): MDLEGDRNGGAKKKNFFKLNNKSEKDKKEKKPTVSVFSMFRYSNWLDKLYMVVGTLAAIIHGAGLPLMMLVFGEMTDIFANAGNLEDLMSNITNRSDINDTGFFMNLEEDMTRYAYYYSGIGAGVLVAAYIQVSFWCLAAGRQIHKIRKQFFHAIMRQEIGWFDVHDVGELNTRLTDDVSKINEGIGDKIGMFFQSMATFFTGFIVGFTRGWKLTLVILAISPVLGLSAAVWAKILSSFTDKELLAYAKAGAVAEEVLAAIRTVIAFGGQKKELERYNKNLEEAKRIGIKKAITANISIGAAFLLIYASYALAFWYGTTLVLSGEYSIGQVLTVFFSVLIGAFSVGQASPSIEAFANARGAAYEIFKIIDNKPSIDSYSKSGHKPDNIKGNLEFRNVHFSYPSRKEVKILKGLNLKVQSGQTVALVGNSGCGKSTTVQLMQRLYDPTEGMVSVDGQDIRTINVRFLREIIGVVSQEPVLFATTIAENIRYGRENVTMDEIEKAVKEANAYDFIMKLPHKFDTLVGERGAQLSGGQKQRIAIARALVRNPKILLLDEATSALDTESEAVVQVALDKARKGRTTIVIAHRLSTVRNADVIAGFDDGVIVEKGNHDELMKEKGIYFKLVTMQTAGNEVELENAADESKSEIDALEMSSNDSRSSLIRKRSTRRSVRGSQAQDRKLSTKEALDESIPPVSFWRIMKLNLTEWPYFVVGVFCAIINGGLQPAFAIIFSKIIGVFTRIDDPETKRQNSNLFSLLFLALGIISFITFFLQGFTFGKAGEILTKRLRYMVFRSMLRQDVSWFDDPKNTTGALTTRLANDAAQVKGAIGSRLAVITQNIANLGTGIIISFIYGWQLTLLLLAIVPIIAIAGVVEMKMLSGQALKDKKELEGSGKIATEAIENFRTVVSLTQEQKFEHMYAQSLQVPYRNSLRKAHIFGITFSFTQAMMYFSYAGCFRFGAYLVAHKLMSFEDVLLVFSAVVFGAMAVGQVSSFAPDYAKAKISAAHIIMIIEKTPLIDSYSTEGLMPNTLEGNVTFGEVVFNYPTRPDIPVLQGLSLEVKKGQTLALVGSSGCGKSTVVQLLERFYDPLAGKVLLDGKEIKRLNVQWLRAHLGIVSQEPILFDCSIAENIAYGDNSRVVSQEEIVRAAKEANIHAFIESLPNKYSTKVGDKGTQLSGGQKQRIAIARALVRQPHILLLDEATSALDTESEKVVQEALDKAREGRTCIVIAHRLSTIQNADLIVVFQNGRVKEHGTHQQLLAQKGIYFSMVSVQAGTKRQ
procedure text: Inhibition of human Pgp in A2780 cells after 30 mins by Hoechst 33342 assay
Type: cell-based
# pIC50 = -log10(concentration in molar units)

>>> recorded_measurement("COc1cc2c(cc1OC)CN(CCc1ccc(NC(=O)c3cc4ccccc4cn3)cc1)CC2")
6.11
>>> recorded_measurement("COc1cc2c(cc1OC)CN(CCc1ccc(NC(=O)c3cc(OC)c(OC)cc3NC(=O)c3cnc4ccccc4c3)cc1)CC2")
6.90
>>> recorded_measurement("COc1cc2c(cc1OC)CN(CCc1ccc(NC(=O)c3cccc4ccccc34)cc1)CC2")
5.73
>>> recorded_measurement("COc1cc2c(cc1OC)CN(CCc1ccc(NC(=O)c3ccccc3NC(=O)c3cnc4ccccc4c3)cc1)CC2")
6.78
>>> recorded_measurement("COc1cc2c(cc1OC)CN(CCc1ccc(NC(=O)c3ccccc3NC(=O)c3ccc(C)cc3)cc1)CC2")
6.28

Look up pIC50 for this compound: COc1cc2c(cc1OC)CN(CCc1ccc(NC(=O)c3ccccc3Br)cc1)CC2
5.46

Same lookup for COc1cc2c(cc1OC)CN(CCc1ccc(NC(=O)c3ccc4ncccc4c3)cc1)CC2 , please.
6.13

Likewise for O=C(Nc1ccc(CCN2CCc3ccccc3C2)cc1)c1ccccc1[N+](=O)[O-] ?
4.87

Another compound to look at: COc1cc2c(cc1OC)CN(CCc1ccc(NC(=O)c3ccc([N+](=O)[O-])cc3)cc1)CC2
5.86

COc1cc2c(cc1OC)CN(CCc1ccc(NC(=O)c3ccnc4ccccc34)cc1)CC2 ?
5.65
